TARGET SYSTEM: IP receptor (Homo sapiens)
Construct: one million cells in 160 μl aliquot of cell suspension were put in a well of 96 well plate
Sequence (P43119 whole entry): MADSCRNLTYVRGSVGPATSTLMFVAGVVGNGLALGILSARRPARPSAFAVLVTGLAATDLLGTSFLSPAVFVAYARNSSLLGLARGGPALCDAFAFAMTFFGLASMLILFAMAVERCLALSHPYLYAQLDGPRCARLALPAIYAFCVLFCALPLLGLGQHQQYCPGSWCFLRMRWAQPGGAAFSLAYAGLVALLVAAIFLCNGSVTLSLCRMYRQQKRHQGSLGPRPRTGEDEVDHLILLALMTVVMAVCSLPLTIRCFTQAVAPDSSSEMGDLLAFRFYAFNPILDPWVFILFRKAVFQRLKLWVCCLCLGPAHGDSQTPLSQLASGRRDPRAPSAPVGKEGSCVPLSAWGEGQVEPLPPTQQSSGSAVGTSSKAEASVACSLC
TEST DETAILS: IP receptor binding/cAMP in HEL cells ([3H]-iloprost binding, Assay 1; iloprost-induced cAMP production, Assay 2)
CONDITION DETAILS: compounds of about 40 to 90% purity, read-out: In vitro activity grade (IC50 class)
Overview of recorded IC50 for various compounds

• O=C(O)C(Cc1ccccc1)Nc1cc(-c2ccc(OCCCc3ccccc3)cc2)ncn1 (stereo not shown) = < 100 nM
• O=C(O)C(Cc1ccccn1)Nc1cc(-c2ccc(OCc3cccc(F)c3)cc2)ncn1 (stereo not shown) = < 100 nM
• O=C(O)C(Cc1ccccc1)Nc1cc(-c2ccc(CN3Cc4ccccc4C3)cc2)ncn1 (stereo not shown) = 100 to 1000 nM

Now let's try a different one.
So what does the record say about IC50 for O=C(O)C(Cc1ccccc1)Nc1cc(-c2ccc(-c3ccc(-c4ccccc4)cc3)cc2)ncn1 (stereo not shown) ?
> 1000 nM
